Listing of entries alongside the reported inhibition.
ASSAYED TARGET: Dual specificity tyrosine-phosphorylation-regulated kinase 1B (Homo sapiens);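 further: values are mean percent inhibition of DYRK1B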
EXPERIMENTAL SETUP: at 0.1 µM
ASSAY READOUT: inhibition (%)

[[record]]
compound = "COc1cc(Nc2ncc(-c3ccccc3)o2)cc(OC)c1OC"
assay_readout = "inhibition"
measurement_units = "%"
number = 1.65

[[record]]
compound = "NC(=O)c1ccc(Oc2nccc(-c3c(-c4ccc(F)cc4)ncn3C3CCNCC3)n2)cc1"
assay_readout = "inhibition"
measurement_units = "%"
number = 0.33

[[record]]
compound = "Fc1ccc(-c2ncn(C3CCNCC3)c2-c2ccnc(Oc3ccc(Oc4ccccc4)cc3)n2)cc1"
assay_readout = "inhibition"
measurement_units = "%"
number = -0.87

[[record]]
compound = "CCN(CC)Cc1ccc(Nc2nccc(-c3cnn4ncccc34)n2)cc1"
assay_readout = "inhibition"
measurement_units = "%"
number = 43.6

[[record]]
compound = "CN(C)CCCNc1nccc(-c2c(-c3ccc(F)cc3)nn3cc(C(F)(F)F)ccc23)n1"
assay_readout = "inhibition"
measurement_units = "%"
number = -2.7

[[record]]
compound = "NC(=O)Cc1ccccc1Oc1nccc(-c2c(-c3ccc(F)cc3)ncn2C2CCNCC2)n1"
assay_readout = "inhibition"
measurement_units = "%"
number = 2.79

[[record]]
compound = "COc1cc2ncn(-c3cc(OCc4ccccc4C(F)(F)F)c(C(C)=O)s3)c2cc1OC"
assay_readout = "inhibition"
measurement_units = "%"
number = -0.72

[[record]]
compound = "COc1ccc(-c2ccc3c(NC(=O)C4CC4)n[nH]c3n2)cc1"
assay_readout = "inhibition"
measurement_units = "%"
number = -0.93

[[record]]
compound = "C#Cc1cccc(Nc2ncnc3ccc(OCCCCNCCS(C)(=O)=O)cc23)c1"
assay_readout = "inhibition"
measurement_units = "%"
number = -2.75

[[record]]
compound = "COc1ccc(C2=C(N3CCc4ccccc43)C(=O)NC2=O)cc1"
assay_readout = "inhibition"
measurement_units = "%"
number = 1.97

